Target: T1, rhTSLP-mFc融合蛋白 (human)
T1 construct: Expressed in 293F cells and purified on protein A; also called 人重组TSLP蛋白
T1 sequence (chain, as listed by the source limits assumed): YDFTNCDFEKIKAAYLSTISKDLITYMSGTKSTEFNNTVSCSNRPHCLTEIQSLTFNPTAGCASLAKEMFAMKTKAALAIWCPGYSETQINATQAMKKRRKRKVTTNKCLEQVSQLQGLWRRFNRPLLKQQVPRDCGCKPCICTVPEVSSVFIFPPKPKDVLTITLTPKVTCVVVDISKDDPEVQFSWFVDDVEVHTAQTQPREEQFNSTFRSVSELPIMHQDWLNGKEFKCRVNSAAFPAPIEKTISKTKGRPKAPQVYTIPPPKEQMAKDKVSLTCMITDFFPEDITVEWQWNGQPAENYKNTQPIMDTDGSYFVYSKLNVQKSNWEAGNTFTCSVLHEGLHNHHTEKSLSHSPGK
Assay: ELISA: rhTSLP-mFc coated, goat anti-human IgG-HRP detection
Attribute Measured: binding result

1) 人源化单克隆抗体6K2/3H3 (antibody, human IgG1, kappa, V domains shown, Humanized from 6K/3H; expressed in 293F cells) VH: EVQLVESGAEVVKPGALVKVSCKASGFNIKDYYMHWVRQRPGQGLEWIGWIDPENGNTIYDQKFQGRVSITADTSTNTAYLELSSLTSEDTAVYYCAREGDGNYLWFAYWGQGTLVTVSS VL: DIQLTQSPSSLSASVGDKVIITCKASQDINKYIAWYQQKPGKALKLLIHYTSTLETGVPSRFSGSGSGTDYTFSISNLQPEDIATYYCLHYDNLLTFGGGTKVELKR : binds
2) 人源化单克隆抗体6K1/3H2 (antibody, human IgG1, kappa, V domains shown, Humanized from 6K/3H; expressed in 293F cells) VH: QVQLVQSGAELKKPGASVKISCKASGFNIKDYYMHWVRQRPEQGLEWIGWIDPENGNTIYAQKFQGRATITADTSTDTAYMELSSLTSEDTAVYYCAREGDGNYLWFAYWGQGTLVTVSS VL: DIQMTQSPSSLSASVGGKVTITCKASQDINKYIAWYQQKPGKGPKLLIHYTSTLEPGVPSRFSGSGSGRDFTFSISSLQPEDIATYYCLHYDNLLTFGGGTKVEIKR : binds
3) 人源化单克隆抗体6K1/3H1 (antibody, human IgG1, kappa, V domains shown, Humanized from 6K/3H; expressed in 293F cells) VH: QVKLVQSGAELVKPGASVKLSCKASGFNIKDYYMHWVRQRPGQGLEWIGWIDPENGNTMYAPKFQGRASITADTSTNTAYMQLSSLRSEDTAVYYCAREGDGNYLWFAYWGQGTLVTVSS VL: DIQMTQSPSSLSASVGGKVTITCKASQDINKYIAWYQQKPGKGPKLLIHYTSTLEPGVPSRFSGSGSGRDFTFSISSLQPEDIATYYCLHYDNLLTFGGGTKVEIKR : binds

Data provenance: patent CN111196850A
